System: Leishmania donovani
procedure.text: Antileishmanial activity against Leishmania donovani MHOM/ET/67/L82 amastigotes assessed as growth inhibition incubated for 70 hrs by resazurin based inverted microscopic analysis
Type: functional, organism-based
condition.summary: Leishmania donovani, MHOM/ET/67/L82, 70 h
pIC50: −log10 of the molar value.
Reported values of pIC50 for individual entries
observed.property: pIC50

* COc1cc([C@H]2Oc3ccccc3[C@@H]2C)cc(I)c1O (racemic) | 4.87
* CCCCOC(=O)/C=C/c1cc(OC)c2c(c1)[C@H](C(=O)OCCCC)[C@@H](c1ccc(O)c(OC)c1)O2 (racemic) | 5.51
* COc1cc([C@H]2Oc3ccc(Br)cc3[C@@H]2CO)cc(Br)c1O (racemic) | 4.92
* COc1cc([C@H]2Oc3c(OC)cc(/C=C/C(=O)NC(C)C)cc3[C@@H]2C(=O)NC(C)C)ccc1O (racemic) | 4.27
* C[C@H]1c2cc(/C=C/C(=O)O)ccc2O[C@@H]1c1ccc(O)cc1 (racemic) | 5.25
* OC[C@H]1c2ccccc2O[C@@H]1c1ccccc1Br (racemic) | 4.66
* COc1ccc([C@H]2Oc3ccccc3[C@@H]2C)cc1 (racemic) | 4.00
* C[C@H]1c2cc(Br)ccc2O[C@@H]1c1ccc(O)cc1 (racemic) | 4.49
* COc1cc([C@H]2Oc3c(OC)cc(/C=C/CO)cc3[C@@H]2CO)ccc1O (racemic) | 3.80
* O=Cc1ccc(-c2ccc3c(c2)[C@H](CO)[C@@H](c2ccc(O)cc2)O3)cc1 (racemic) | 4.42
* CCCCCCCCOC(=O)/C=C/c1cc(O)c2c(c1)[C@H](C(=O)OCCCCCCCC)[C@@H](c1ccc(O)c(O)c1)O2 (racemic) | 4.63
* CCOC(=O)/C=C/c1cc(OC)c2c(c1)[C@H](C(=O)OCC)[C@@H](c1ccc(O)c(OC)c1)O2 (racemic) | 5.04
* COc1ccc([C@H]2Oc3ccc(Br)cc3[C@@H]2C)cc1 (racemic) | 4.50
* Cc1ccc(-c2ccc3c(c2)[C@H](CO)[C@@H](c2ccc(O)cc2)O3)s1 (racemic) | 4.79
* OC[C@H]1c2cc(-c3ccc(O)cc3)ccc2O[C@@H]1c1ccc(O)cc1 (racemic) | 4.78
* COc1ccc([C@H]2Oc3ccc(/C=C/C(=O)OC(C)(C)C)cc3[C@@H]2CO)cc1OC (racemic) | 4.97
* OC[C@H]1c2cc(Br)ccc2O[C@@H]1c1ccc(O)c(Br)c1 (racemic) | 4.66
* COc1cc([C@H]2Oc3ccc(Br)cc3[C@@H]2C)ccc1O (racemic) | 4.61

---

Tested on: L6
procedure.text: Cytotoxicity against rat L6 cells assessed as reduction in cell viability incubated for 70 hrs by resazurin staining based inverted microscopic analysis
condition.summary: L6, 70 h
pIC50: −log10 of the molar value.
observed.property: pIC50

- CC(=O)OC[C@H]1c2cc(Br)ccc2O[C@@H]1c1ccc(O)cc1 (racemic): 4.26
- O=S(=O)(OC[C@H]1c2ccccc2O[C@@H]1c1ccc(OS(=O)(=O)c2ccccn2)cc1)c1ccccn1 (racemic): 3.72
- COc1ccc([C@H]2Oc3ccc(/C=C/C(=O)OC(C)(C)C)cc3[C@@H]2CF)cc1OC (racemic): 4.47
- Cc1ccc(-c2ccc3c(c2)[C@H](CO)[C@@H](c2ccc(O)cc2)O3)s1 (racemic): 4.80

// provenance: ChEMBL document CHEMBL4765412
